Data origin, for the record: patent US6686355B2

# ASSAY_SYSTEM: MMP-13CD (catalytic domain of collagenase 3) (Homo sapiens, UniProt P45452)
# ASSAY_METHOD_TEXT: Thiopeptolide hydrolysis assay, MMP-13CD
# Assay type: biochemical
# PARTICULARS: thiopeptolide substrate, HEPES pH 7.0, 22° C.
MEASUREMENT_LABEL: IC50 (µM)

Solved cases below.
CC1(C)SCCN(S(=O)(=O)c2ccc(-c3ccc(F)cc3F)cc2)[C@H]1C(=O)O [Example 39] | 0.16
CC1(C)[C@H](C(=O)NO)N(S(=O)(=O)c2ccc(-c3ccc(Br)cc3)cc2)CCS1(=O)=O [Example 4] | 0.001
CC(=O)c1cccc(-c2ccc(S(=O)(=O)N3CCSC(C)(C)[C@@H]3C(=O)O)cc2)c1 [Example 61] | 2.9
CC(C)(C)c1ccc(-c2ccc(S(=O)(=O)N3CCSC(C)(C)[C@@H]3C(=O)O)cc2)cc1 [Example 49] | 0.061
CN(C)c1ccc(-c2ccc(S(=O)(=O)N3CCSC(C)(C)[C@@H]3C(=O)O)cc2)cc1 [Example 54] | 0.013
CC1(C)SCCN(S(=O)(=O)c2ccc(-c3cccc(OC(F)(F)F)c3)cc2)[C@H]1C(=O)O [Example 59] | 5.3
CC1(C)SCCN(S(=O)(=O)c2ccc(-c3ccc(Oc4ccccc4)cc3)cc2)[C@H]1C(=O)O [Example 40] | 0.1
CC1(C)SCCN(S(=O)(=O)c2ccc(-c3ccc(Br)cc3)cc2)[C@H]1C(=O)NO [Example 2] | 0.001

a: CC1(C)SCCN(S(=O)(=O)c2ccc(-c3ccc(Cl)cc3Cl)cc2)[C@H]1C(=O)O [Example 56]
b: CC1(C)SCCN(S(=O)(=O)c2ccc(-c3ccc(-c4ccccc4)c(F)c3)cc2)[C@H]1C(=O)O [Example 53]
c: CCOc1ccc(-c2ccc(S(=O)(=O)N3CCSC(C)(C)[C@@H]3C(=O)O)cc2)cc1 [Example 43]
d: CC1(C)SCCN(S(=O)(=O)c2ccc(-c3cccc(Cl)c3)cc2)[C@H]1C(=O)O [Example 34]
Order the records, beginning with the lowest IC50 and ending with the highest. A complete answer lists every label in the requested sequence.
c, b, d, a
(c: 0.0033 µM, b: 0.0086 µM, d: 0.243 µM, a: 1.1 µM)

A: CC1(C)SCCN(S(=O)(=O)c2ccc(-c3ccc(F)c(Cl)c3)cc2)[C@H]1C(=O)O [Example 42]
B: CC(C)c1ccc(-c2ccc(S(=O)(=O)N3CCSC(C)(C)[C@@H]3C(=O)O)cc2)cc1 [Example 44]
Of the two listed items, A and B , which carries the larger IC50 figure? Mark your answer with the label of the selected entry.
A
(A: 0.113 µM, B: 0.02 µM)

----------
# ASSAY_SYSTEM: MMP-2FL (full length Gelatinase A) (Homo sapiens, UniProt P08253)
# Sequence (P08253 110-660): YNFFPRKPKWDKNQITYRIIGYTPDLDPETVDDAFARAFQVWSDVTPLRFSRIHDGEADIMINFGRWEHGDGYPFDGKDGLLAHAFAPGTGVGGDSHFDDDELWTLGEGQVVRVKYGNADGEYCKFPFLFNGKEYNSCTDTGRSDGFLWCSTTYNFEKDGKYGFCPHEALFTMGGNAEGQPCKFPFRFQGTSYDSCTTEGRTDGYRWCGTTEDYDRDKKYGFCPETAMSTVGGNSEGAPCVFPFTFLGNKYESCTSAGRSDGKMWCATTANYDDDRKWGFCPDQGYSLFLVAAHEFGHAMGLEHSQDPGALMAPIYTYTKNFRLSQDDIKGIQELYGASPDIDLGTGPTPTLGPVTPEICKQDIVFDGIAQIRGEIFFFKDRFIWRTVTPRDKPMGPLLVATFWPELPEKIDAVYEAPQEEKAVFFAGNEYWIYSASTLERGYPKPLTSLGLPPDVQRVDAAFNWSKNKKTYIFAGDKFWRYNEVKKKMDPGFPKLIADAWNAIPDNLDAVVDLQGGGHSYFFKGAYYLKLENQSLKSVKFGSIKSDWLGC
# ASSAY_METHOD_TEXT: Thiopeptolide hydrolysis assay, MMP-2FL
# Assay type: biochemical
# PARTICULARS: thiopeptolide substrate, HEPES pH 7.0, 22° C.
MEASUREMENT_LABEL: IC50 (µM)

CC1(C)SCCN(S(=O)(=O)c2ccc(-c3ccc4c(c3)OCO4)cc2)[C@H]1C(=O)O [Example 33] | 0.0185
CC1(C)SCCN(S(=O)(=O)c2ccc(-c3ccc(OC(F)(F)F)cc3)cc2)[C@H]1C(=O)O [Example 45] | 0.0027
CC1(C)SCCN(S(=O)(=O)c2ccc(-c3ccc(F)c(F)c3)cc2)[C@H]1C(=O)O [Example 41] | 0.23

I: CC1(C)SCCN(S(=O)(=O)c2ccc(-c3ccccc3C=O)cc2)[C@H]1C(=O)O [Example 63]
II: CC1(C)SCCN(S(=O)(=O)c2ccc(-c3ccc(C=O)cc3)cc2)[C@H]1C(=O)O [Example 30]
Field: lower IC50 | Options: I / II Indicate your choice by writing its label.
II
(II: 0.042 µM, I: 68 µM)

1: CC1(C)SCCN(S(=O)(=O)c2ccc(-c3ccc(CO)cc3)cc2)[C@H]1C(=O)O [Example 5]
2: COc1cccc(OC)c1-c1ccc(S(=O)(=O)N2CCSC(C)(C)[C@@H]2C(=O)O)cc1 [Example 60]
Hey, between 1 and 2 which has a smaller measured IC50? Answer by quoting the chosen item's label.
1
